FYI, the data here is from the supplement of paper PMC11908140.

B1: library; numbered along this chain (parent)
chain: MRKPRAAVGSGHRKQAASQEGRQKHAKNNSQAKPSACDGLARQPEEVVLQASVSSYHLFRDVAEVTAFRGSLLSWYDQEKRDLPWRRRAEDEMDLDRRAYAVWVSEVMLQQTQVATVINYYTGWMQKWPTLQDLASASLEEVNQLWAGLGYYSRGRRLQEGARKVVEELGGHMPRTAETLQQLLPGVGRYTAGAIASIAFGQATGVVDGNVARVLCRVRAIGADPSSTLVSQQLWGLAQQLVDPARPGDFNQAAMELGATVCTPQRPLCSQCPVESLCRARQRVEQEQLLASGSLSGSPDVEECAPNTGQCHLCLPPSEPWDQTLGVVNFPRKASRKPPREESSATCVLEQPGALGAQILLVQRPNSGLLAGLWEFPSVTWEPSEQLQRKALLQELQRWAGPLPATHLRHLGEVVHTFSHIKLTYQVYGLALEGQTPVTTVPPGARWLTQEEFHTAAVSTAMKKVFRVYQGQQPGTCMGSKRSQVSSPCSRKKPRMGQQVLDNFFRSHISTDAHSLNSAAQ

Variants of: B1
Assay: 8OG:A repair function score (normalized; synonymous = 0, nonsense = -1) (normalized log-likelihood score); higher = more repair activity (WT-like);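 note: cells sorted at 72 h after reporter transfection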
Settings: with 8OG:A DNA repair reporter (GFP) in HEK-293 MUTYH KO cells
OBSERVATION_TYPE: 8OG:A repair function score

MUTATION_CODE	OBSERVED_RESULT
D502Y	-0.0488
T476C	-0.0603
G171T	-0.321
M496S	-0.0675
A371E	-0.577
R446H	-0.177
L237T	-0.184
V102Q	-0.275
L315N	-0.209
A245R	-0.124
L392F	-0.647
E452S	-0.0485
D77G	-0.0368
L95H	-0.053
M462W	-0.592
P185H	-0.43
